- Target or system: T1, Foxp3-7 peptide/HLA-A*02:01 complex on the cell surface (human)
- T1 construct: also called Foxp3-7/HLA-A2 complex
- Run description: flow cytometry, phage on peptide-loaded T2 cells

| Binder | MFI |
| --- | --- |
| EXT017-20 scFv phage clone (scFv, full-length scFv with His+HA tags; also called EXT017-20 phage) scFv: QSVVTQPPSVSAAPGQKVTISCSGSSSNIGAGYDVHWYQQLPGTAPKLLIYGNSNRPSGVPDRFSGSKSGTSASLAITGLQAEDEADYYCQSYDSSLSGSVFGGGTKLTVLGSRGGGGSGGGGSGGGGSLEMAEVQLVQSGAEVKKPGSSVKVSCKASGGTFSSYAISWVRQAPGQGLEWMGGIIPIFGTANYAQKFQGRVTITADESTSTAYMELSSLRSEDTAVYYCARYSYKYGELDTWGQGTLVTVSSTSGQAGQHHHHHHGAYPYDVPDYAS | 17100 |
| EXT017-17 scFv phage clone (scFv, fusion to the phage coat protein not described; also called EXT017-17 phage; phage clone #17) scFv: QSVLTQPPSVSGAPGQRVTISCTGSSSNIGAGYDVHWYQQLPGTAPKLLIYGNSNRPSGVPDRFSGSKSGTSASLAITGLQAEDEADYYCQSYDSSLSGYVFGTGTKVTVLGSRGGGGSGGGGSGGGGSLEMAEVQLVQSGAEVKKPGSSVKVSCKASGDTFSRYAISWVRQAPGQGLEWMGRIIPIFGTPNYAQKFQGRVTITADEFTSTAYMELSSLRSEDTAMYYCARSIYRYSEYDHWGQGTLVTVSSTSGQAGQHHHHHHGAYPYDVPDYAS | 23600 |
| EXT017-53 scFv phage clone (scFv, full-length scFv with His+HA tags; also called EXT017-53 phage) scFv: NFMLTQPHSVSESPGKTVTISCTRSSGSIASHYVQWYQQRPGSSPTTVIYENNQRPSGVPDRFSGSIDSSSNSASLTISGLKTEDEADYYCQSYDRSNHVVFGGGTKLTVLGSRGGGGSGGGGSGGGGSLEMAQVQLVQSGAEVKKPGASVKVSCKASGYTFTNYYIHWVRQAPGEGLEWMGIIRPSGGNTNYAQKFQGRVTMTRDTSTRTVYMELSSLRSEDTAVYYCARSWNSRDVDSWGQGTLVTVSSTSGQAGQHHHHHHGAYPYDVPDYAS | 25800 |
| EXT017-27 scFv phage clone (scFv, full-length scFv with His+HA tags; also called EXT017-27 phage; phage clone #27) scFv: QAVLTQPPSVSVAPGKTARLTCGGNNIGSESVHWYQQKPGQAPLLVVYDDDDRPSGIPERFSGSNSGNTATLTISRVEAGDEADYYCQVWDRSSDHWFFGGGTKLTVLGSRGGGGSGGGGSGGGGSLEMAQVQLVQSGAEVKKPGASVKVSCKASGYTFTNYYIHWVRQAPGQGLEWMGIIRPSGGITNYAQKFQGRVSMTRDTSTSTVYMELSSLRSEDTAVYYCARSWDYFASNDFWGQGTLVTVSSTSGQAGQHHHHHHGAYPYDVPDYAS | 21200 |
